Attribution: the METLIN SMRT retention time set (Domingo-Almenara et al. 2019)

Catalogue of RP-LC retention time readings, one per entry.
- protocol_details: gradient 5% acetonitrile 3 min, to 50% in 2 min, to 85% in 15 min, held 3 min, 100 µL/min
- setup_conditions: column: Zorbax Extend-C18 2.1 x 50 mm; eluents: water / acetonitrile, 0.1% formic acid
assay_readout: RP-LC retention time (s)

compound=Cc1ccc(C(=O)Nc2ccc(N3CCN(C4CCCC4)C3=O)nc2)cc1F measured_value=918
compound="CN1C(=O)c2cccn2CC1C(=O)Nc1ccccc1 (stereo not given)" measured_value=681
compound="COc1ccc(C2Cn3nnc(C(=O)NC4CCCCCC4)c3CO2)cc1 (stereo not given)" measured_value=1040
compound="CCC(c1cccs1)N1C(=O)[C@H]2CN(S(=O)(=O)c3ccc(C)c(C)c3)C[C@H]2C1=O (stereo not given in full)" measured_value=1070
compound=O=C1C(=O)N(C2CCN(S(=O)(=O)c3ccc(F)c(Cl)c3)CC2)CCN1Cc1ccccc1 measured_value=862

----------
- protocol_details: gradient 5% acetonitrile 3 min, to 50% in 2 min, to 85% in 15 min, held 3 min, 100 µL/min
- setup_conditions: column: Zorbax Extend-C18 2.1 x 50 mm; eluents: water / acetonitrile, 0.1% formic acid
Reported RP-LC retention time is given for each of the following molecules.
assay_readout: RP-LC retention time (s)

molecule=NC(=O)c1cc(-c2cccc(Cl)c2)n[nH]1 assay_readout="RP-LC retention time" unit_tag=s measured_value=679
molecule=O=C(NCc1ccco1)Nc1ccccc1Cl assay_readout="RP-LC retention time" unit_tag=s measured_value=766
molecule="CCCCNC(=O)C1CCC(=O)N(c2ccc(OC)cc2)C1c1ccc(F)cc1 (stereo not given)" assay_readout="RP-LC retention time" unit_tag=s measured_value=757
molecule=Cc1nc(C(C)C)ncc1C(=O)Nc1ccc(Br)cc1F assay_readout="RP-LC retention time" unit_tag=s measured_value=907
molecule="CCCN(CC1CCOC1)C(=O)NCc1ccc(C)cc1 (stereo not given)" assay_readout="RP-LC retention time" unit_tag=s measured_value=796
molecule=Cc1oc(-c2[nH]ncc2C(=O)N2CCCC2)cc1S(=O)(=O)Nc1cc(F)ccc1F assay_readout="RP-LC retention time" unit_tag=s measured_value=699
molecule=O=C(c1cccc(Cl)c1)N1CCC(Cc2nnc(-c3ccccc3)o2)CC1 assay_readout="RP-LC retention time" unit_tag=s measured_value=891
molecule=Cc1noc(C)c1S(=O)(=O)N1CCC(CC(=O)NCCc2c[nH]c3ccccc23)CC1 assay_readout="RP-LC retention time" unit_tag=s measured_value=816
molecule=C[C@H]1CN(C(=O)c2c[nH]c3ccccc23)C[C@@H]1c1nc(-c2cccnc2)no1 assay_readout="RP-LC retention time" unit_tag=s measured_value=711
molecule="CCOc1ccc(CN2CCC3(CC2)CC(O)CCO3)cc1OC (stereo not given)" assay_readout="RP-LC retention time" unit_tag=s measured_value=583

----------
RP-LC retention time for assorted compounds
- protocol_details: gradient 5% acetonitrile 3 min, to 50% in 2 min, to 85% in 15 min, held 3 min, 100 µL/min
- setup_conditions: column: Zorbax Extend-C18 2.1 x 50 mm; eluents: water / acetonitrile, 0.1% formic acid
assay_readout: RP-LC retention time

compound=Cc1ccc(-c2nnc(Cc3nc(-c4ccc(C(F)(F)F)cc4)no3)o2)cc1F measured_value="1180 s"
compound="CCC(C(=O)NCC1CCCO1)n1c2ccccc2c2cnn(C)c(=O)c21 (centres undefined)" measured_value="768 s"
compound=CC(C)NC(=O)c1ccc(Cn2c(SCC#N)nc3cc4c(cc3c2=O)OCO4)cc1 measured_value="759 s"
compound=CCc1noc(NC(C)=O)c1-c1ccc(C)c(S(=O)(=O)Nc2ccc(C(F)(F)F)cc2)c1 measured_value="902 s"
compound=Cc1ccc(-n2nc(C)c3c(C)cc(OCC(=O)NCc4ccc5c(c4)OCO5)nc32)cc1 measured_value="1060 s"
compound=CCOC(=O)c1[nH]c2ccc(OC)cc2c1NC(=S)N1CCN(c2ccccn2)CC1 measured_value="610 s"
compound=CCc1nnc(C2CCN(C(=O)c3ccc(F)cc3F)CC2)s1 measured_value="770 s"
compound=COc1ccc(NC(=O)c2c[nH]c3ncccc23)c(C)c1 measured_value="657 s"
compound="Cc1c(C(=O)NCC(c2cccs2)N2CCCC2)oc2ccc(Cl)cc12 (centres undefined)" measured_value="730 s"
